I'd appreciate it if you could supply fold change of affinity values for the items below.
Biological target: T1, Human CD3eg linker (human)
T1 construct: single-chain construct; also called recombinant human CD3
T1 chain: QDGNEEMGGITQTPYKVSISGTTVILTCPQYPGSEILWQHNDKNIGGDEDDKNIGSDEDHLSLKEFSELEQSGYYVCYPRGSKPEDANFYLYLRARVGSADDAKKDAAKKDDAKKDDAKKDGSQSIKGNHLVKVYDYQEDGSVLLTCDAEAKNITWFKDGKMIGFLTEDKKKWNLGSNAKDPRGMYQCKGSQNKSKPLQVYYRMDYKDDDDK
Experiment: SPR, vs unmutated H183/L072
Could you give me the number in fold? Just the number is fine.

Req: Which fold change of affinity is listed for dBBDu183H K64D/dBBDu072L (antibody, name in Kabat numbering, V domains shown) VH: QVQLVESGGGLVQPGRSLRLSCAASGFTFSNAWMHWVRQAPGKGLEWVAQIKDKGNAYAAYYAPSVDGRFTISRDDSKNSIYLQMNSLKTEDTAVYYCHYVHYASASTVLPAFGVDAWGQGTTVTVSS VL: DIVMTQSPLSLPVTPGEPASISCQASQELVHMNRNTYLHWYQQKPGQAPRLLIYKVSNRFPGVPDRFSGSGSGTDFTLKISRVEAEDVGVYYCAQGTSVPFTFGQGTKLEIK ?
Resp: 1

Req: Which fold change of affinity is listed for dBBDu183H S100aN/dBBDu072L (antibody, name in Kabat numbering, V domains shown) VH: QVQLVESGGGLVQPGRSLRLSCAASGFTFSNAWMHWVRQAPGKGLEWVAQIKDKGNAYAAYYAPSVKGRFTISRDDSKNSIYLQMNSLKTEDTAVYYCHYVHYASANTVLPAFGVDAWGQGTTVTVSS VL: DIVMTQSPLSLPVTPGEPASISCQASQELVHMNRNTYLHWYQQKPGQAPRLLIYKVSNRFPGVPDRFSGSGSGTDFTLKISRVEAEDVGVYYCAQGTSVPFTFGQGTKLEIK ?
Resp: 0.8

Req: Which fold change of affinity is listed for dBBDu183H V63F/dBBDu072L (antibody, name in Kabat numbering, V domains shown) VH: QVQLVESGGGLVQPGRSLRLSCAASGFTFSNAWMHWVRQAPGKGLEWVAQIKDKGNAYAAYYAPSFKGRFTISRDDSKNSIYLQMNSLKTEDTAVYYCHYVHYASASTVLPAFGVDAWGQGTTVTVSS VL: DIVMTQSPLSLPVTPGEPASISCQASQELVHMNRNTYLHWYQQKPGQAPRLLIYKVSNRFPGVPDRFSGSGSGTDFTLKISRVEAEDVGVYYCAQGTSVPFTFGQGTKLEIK ?
Resp: 1.1

Req: Which fold change of affinity is listed for dBBDu183H V63R/dBBDu072L (antibody, name in Kabat numbering, V domains shown) VH: QVQLVESGGGLVQPGRSLRLSCAASGFTFSNAWMHWVRQAPGKGLEWVAQIKDKGNAYAAYYAPSRKGRFTISRDDSKNSIYLQMNSLKTEDTAVYYCHYVHYASASTVLPAFGVDAWGQGTTVTVSS VL: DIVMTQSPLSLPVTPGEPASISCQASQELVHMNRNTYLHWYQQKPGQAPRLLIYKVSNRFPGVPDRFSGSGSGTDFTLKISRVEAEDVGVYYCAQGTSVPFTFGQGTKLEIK ?
Resp: 1.2

Req: Which fold change of affinity is listed for dBBDu183H A100H/dBBDu072L (antibody, name in Kabat numbering, V domains shown) VH: QVQLVESGGGLVQPGRSLRLSCAASGFTFSNAWMHWVRQAPGKGLEWVAQIKDKGNAYAAYYAPSVKGRFTISRDDSKNSIYLQMNSLKTEDTAVYYCHYVHYASHSTVLPAFGVDAWGQGTTVTVSS VL: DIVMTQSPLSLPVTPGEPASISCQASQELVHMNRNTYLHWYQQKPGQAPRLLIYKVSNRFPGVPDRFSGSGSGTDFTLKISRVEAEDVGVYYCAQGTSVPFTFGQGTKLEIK ?
Resp: 1.2

Req: Which fold change of affinity is listed for dBBDu183H K64N/dBBDu072L (antibody, name in Kabat numbering, V domains shown) VH: QVQLVESGGGLVQPGRSLRLSCAASGFTFSNAWMHWVRQAPGKGLEWVAQIKDKGNAYAAYYAPSVNGRFTISRDDSKNSIYLQMNSLKTEDTAVYYCHYVHYASASTVLPAFGVDAWGQGTTVTVSS VL: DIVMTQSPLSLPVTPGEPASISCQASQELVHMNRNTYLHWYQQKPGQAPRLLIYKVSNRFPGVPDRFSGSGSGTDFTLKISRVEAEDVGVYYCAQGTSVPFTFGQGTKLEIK ?
Resp: 1
